Measured pIC50 accompanies every entry in the list below.
# tested-on: Serine/threonine-protein kinase PAK 4 (Homo sapiens)
# Sequence (O96013 whole entry, the tested form may be a part): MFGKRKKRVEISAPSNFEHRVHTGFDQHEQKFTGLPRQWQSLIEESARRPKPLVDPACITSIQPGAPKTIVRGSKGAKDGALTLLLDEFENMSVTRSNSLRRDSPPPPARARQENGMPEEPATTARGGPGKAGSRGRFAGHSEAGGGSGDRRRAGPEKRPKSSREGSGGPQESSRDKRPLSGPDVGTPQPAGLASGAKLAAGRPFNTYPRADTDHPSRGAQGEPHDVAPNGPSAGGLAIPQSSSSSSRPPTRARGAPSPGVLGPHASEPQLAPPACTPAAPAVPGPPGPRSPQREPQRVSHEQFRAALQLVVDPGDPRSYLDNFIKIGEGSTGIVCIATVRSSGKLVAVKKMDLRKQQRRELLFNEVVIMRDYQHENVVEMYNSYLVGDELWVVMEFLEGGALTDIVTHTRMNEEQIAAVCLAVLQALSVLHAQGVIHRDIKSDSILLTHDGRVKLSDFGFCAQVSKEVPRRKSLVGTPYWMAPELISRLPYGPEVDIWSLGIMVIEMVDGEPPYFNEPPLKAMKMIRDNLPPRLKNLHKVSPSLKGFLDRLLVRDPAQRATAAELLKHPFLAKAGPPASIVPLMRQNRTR
# procedure-details: Inhibition of human recombinant PAK4 kinase domain assessed as phosphorylation of FRET peptide substrate at Ser/Thr20 by […] assay
Keep it numeric: pIC50 is minus log10 of the concentration in mol/L.

Consider the worked cases shown below.
smiles-notation | data-value
CCNc1nc2ccc(C#CC(C)(C)O)cc2n1-c1ncnc(N)n1 | 7.18
CCNc1nc2ccc(C#C[C@@](C)(O)c3cc(C)on3)cc2n1-c1ncnc(N)n1 | 8.28
CNc1nc2ccc(C#C[C@@](C)(O)c3cc(C)on3)cc2n1-c1ncnc(N)n1 | 7.45

Now for the compound whose pIC50 we want.
Qu. Form field: reported pIC50 of `COCCNc1nc2ccc(C#CC3(O)CCCCC3)cc2n1-c1ccnc(N)n1`
Ans. 8.32

Reference for the values: ChEMBL document CHEMBL3352201
